Assay: Aqueous solubility of the compound in water by HPLC method
Type: physicochemical
value-type: solubility

Given the compound C[C@H]1[C@H](C)CC[C@]2(C(=O)N3CCNCC3)CC[C@]3(C)C(=CC[C@@H]4[C@@]5(C)Cc6cn[nH]c6C(C)(C)[C@@H]5CC[C@]43C)[C@H]12.Cl , write its reported solubility.
> 150 µg/mL
